Target: UniProt P21554
Decision: EC50 beneath 10 nM gives satisfied; EC50 meeting or exceeding 10 nM gives not satisfied.

Cc1c(C2=NC(=S)C(C)(C)N2C)nn(-c2ccc(Cl)cc2Cl)c1-c1ccc(Cl)cc1 = satisfied
CCc1c(C2=NC(=S)C(C)(C)N2C)nn(-c2ccc(Cl)cc2Cl)c1-c1ccc(Cl)cc1 = satisfied
CCc1c(C2=NC(C)(C)C(=O)N2)nn(-c2ccc(Cl)cc2Cl)c1-c1ccc(Cl)cc1 = not satisfied
CCc1c(C2=NC(C)(C)C(=O)N2C)nn(-c2ccc(Cl)cc2Cl)c1-c1ccc(Cl)cc1 = not satisfied
CCc1c(C2=NC3(CCC3)C(=O)N2)nn(-c2ccc(Cl)cc2Cl)c1-c1ccc(Cl)cc1 = not satisfied
Cc1c(C2=NC(=O)C(C)(C)N2C)nn(-c2ccc(Cl)cc2Cl)c1-c1ccc(C(F)(F)F)cc1 = not satisfied

---

Species on record: Homo sapiens
Experiment: Selectivity ratio of IC50 for human recombinant CB2R to IC50 for human recombinant CB1R
Label N if Ratio IC50 falls below 40; label Y in every other case.

Cc1c(C(=O)NC(=O)C(C)(C)N(C)C)nn(-c2ccc(Cl)cc2Cl)c1-c1ccc(Cl)cc1 = N
CCc1c(C2=NC(C)(C)C(=O)N2C)nn(-c2ccc(Cl)cc2Cl)c1-c1ccc(Cl)cc1 = Y
CCc1c(C2=NC3(CCCC3)C(=O)N2)nn(-c2ccc(Cl)cc2Cl)c1-c1ccc(Cl)cc1 = Y
CCc1c(C2=NC(C)(C)C(=O)N2)nn(-c2ccc(Cl)cc2Cl)c1-c1ccc(Cl)cc1 = Y
C=CCN1C(c2nn(-c3ccc(Cl)cc3Cl)c(-c3ccc(Cl)cc3)c2C)=NC(=O)C1(C)C = N
Cc1c(C2=NC(=O)C(C)(C)N2C)nn(-c2ccc(Cl)cc2Cl)c1-c1ccc(Cl)cc1 = N
CN1C(c2cc(-c3ccc(Cl)cc3)n(-c3ccc(Cl)cc3Cl)n2)=NC(=O)C1(C)C = N
Cc1c(C2=NC(=O)C(C)(C)N2C2CC2)nn(-c2ccc(Cl)cc2Cl)c1-c1ccc(Cl)cc1 = N
CN1C(c2nn(-c3ccc(Cl)cc3Cl)c(-c3ccc(Cl)cc3)c2C2CC2)=NC(=O)C1(C)C = N
Cc1c(C2=NC(=O)C(C)(C)N2C)nn(-c2ccc(Cl)cc2Cl)c1-c1ccc(Br)cc1 = N
CCc1c(C2=NC3(CCC3)C(=O)N2)nn(-c2ccc(Cl)cc2Cl)c1-c1ccc(Cl)cc1 = Y
CCc1c(C2=NC(=O)C(C)(C)N2C)nn(-c2ccc(Cl)cc2Cl)c1-c1ccc(Br)cc1 = Y
Cc1c(C2=NC(=O)C(C)(C)N2Cc2ccccc2)nn(-c2ccc(Cl)cc2Cl)c1-c1ccc(Cl)cc1 = N
Cc1c(C2=NC(C)(C)C(=O)N2C)nn(-c2ccc(Cl)cc2Cl)c1-c1ccc(Cl)cc1 = Y
CCc1c(C2=NC(=O)C(C)(C)N2C)nn(-c2ccc(Cl)cc2Cl)c1-c1ccc(Cl)cc1 = Y
Cc1c(C2=NC(=S)C(C)(C)N2C)nn(-c2ccc(Cl)cc2Cl)c1-c1ccc(Cl)cc1 = Y
COc1ccc(-c2c(C)c(C3=NC(=O)C(C)(C)N3C)nn2-c2ccc(Cl)cc2Cl)cc1 = N
Cc1c(C2=NC(=O)C(C)(C)N2C)nn(-c2ccc(Cl)cc2Cl)c1-c1ccc(C(F)(F)F)cc1 = Y
Cc1c(C2=NC(C)(C)C(=O)N2)nn(-c2ccc(Cl)cc2Cl)c1-c1ccc(Cl)cc1 = Y
CCN1C(c2nn(-c3ccc(Cl)cc3Cl)c(-c3ccc(Cl)cc3)c2C)=NC(=O)C1(C)C = N
CCCN1C(c2nn(-c3ccc(Cl)cc3Cl)c(-c3ccc(Cl)cc3)c2C)=NC(=O)C1(C)C = N
CCc1c(C2=NC(=S)C(C)(C)N2C)nn(-c2ccc(Cl)cc2Cl)c1-c1ccc(Cl)cc1 = Y
CN1C(c2nn(-c3ccc(Cl)cc3Cl)c(-c3ccc(Cl)cc3)c2Br)=NC(=O)C1(C)C = N
CCCCN1C(c2nn(-c3ccc(Cl)cc3Cl)c(-c3ccc(Cl)cc3)c2C)=NC(=O)C1(C)C = N

---

Target: Cannabinoid receptor 2 (Homo sapiens, UniProt P34972)
Sequence (P34972 whole entry): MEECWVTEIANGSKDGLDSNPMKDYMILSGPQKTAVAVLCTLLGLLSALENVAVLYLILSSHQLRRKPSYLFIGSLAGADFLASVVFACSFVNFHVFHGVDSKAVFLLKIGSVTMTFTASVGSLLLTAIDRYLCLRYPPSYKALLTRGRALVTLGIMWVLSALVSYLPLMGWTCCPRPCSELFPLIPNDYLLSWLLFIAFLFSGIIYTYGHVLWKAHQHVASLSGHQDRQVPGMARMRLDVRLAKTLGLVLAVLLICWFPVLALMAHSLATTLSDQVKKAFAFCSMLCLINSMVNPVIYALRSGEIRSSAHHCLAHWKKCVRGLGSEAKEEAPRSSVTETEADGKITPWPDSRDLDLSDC
Test: Displacement of [3H]CP-55940 from human recombinant CB2R expressed in HEK293 cells
Threshold check on IC50: strictly below 3 µM is Y; on or above 3 µM is N.

CCc1c(C2=NC3(CCC3)C(=O)N2)nn(-c2ccc(Cl)cc2Cl)c1-c1ccc(Cl)cc1 = N
CCN1C(c2nn(-c3ccc(Cl)cc3Cl)c(-c3ccc(Cl)cc3)c2C)=NC(=O)C1(C)C = Y
CCc1c(C2=NC(=O)C(C)(C)N2C)nn(-c2ccc(Cl)cc2Cl)c1-c1ccc(Cl)cc1 = Y
Cc1c(C2=NC(C)(C)C(=O)N2C)nn(-c2ccc(Cl)cc2Cl)c1-c1ccc(Cl)cc1 = N
CCc1c(C2=NC(=S)C(C)(C)N2C)nn(-c2ccc(Cl)cc2Cl)c1-c1ccc(Cl)cc1 = N

---

Target: Cannabinoid receptor 2 (Homo sapiens, UniProt P34972)
Experiment: Displacement of [3H]CP-55940 from human recombinant CB2R expressed in HEK293 cells
pIC50: −log10 of the molar value.
# pIC50 values compiled below
readout_type: pIC50

CN1C(c2cc(-c3ccc(Cl)cc3)n(-c3ccc(Cl)cc3Cl)n2)=NC(=O)C1(C)C = 5.10
CCc1c(C2=NC3(CCCC3)C(=O)N2)nn(-c2ccc(Cl)cc2Cl)c1-c1ccc(Cl)cc1 = 5.86
Cc1c(C2=NC(=O)C(C)(C)N2Cc2ccccc2)nn(-c2ccc(Cl)cc2Cl)c1-c1ccc(Cl)cc1 = 5.29
CN1C(c2nn(-c3ccc(Cl)cc3Cl)c(-c3ccc(Cl)cc3)c2C2CC2)=NC(=O)C1(C)C = 6.09
Cc1c(C2=NC(=O)C(C)(C)N2C)nn(-c2ccc(Cl)cc2Cl)c1-c1ccc(C(F)(F)F)cc1 = 5.40
CCc1c(C2=NC(C)(C)C(=O)N2)nn(-c2ccc(Cl)cc2Cl)c1-c1ccc(Cl)cc1 = 4.99
Cc1c(C2=NC(C)(C)C(=O)N2)nn(-c2ccc(Cl)cc2Cl)c1-c1ccc(Cl)cc1 = 5.46
C=CCN1C(c2nn(-c3ccc(Cl)cc3Cl)c(-c3ccc(Cl)cc3)c2C)=NC(=O)C1(C)C = 5.54
CN1C(c2nn(-c3ccc(Cl)cc3Cl)c(-c3ccc(Cl)cc3)c2Br)=NC(=O)C1(C)C = 5.80
COc1ccc(-c2c(C)c(C3=NC(=O)C(C)(C)N3C)nn2-c2ccc(Cl)cc2Cl)cc1 = 5.98

---

Biological target: Cannabinoid receptor 1 (Homo sapiens, UniProt P21554)
Sequence (P21554 whole entry): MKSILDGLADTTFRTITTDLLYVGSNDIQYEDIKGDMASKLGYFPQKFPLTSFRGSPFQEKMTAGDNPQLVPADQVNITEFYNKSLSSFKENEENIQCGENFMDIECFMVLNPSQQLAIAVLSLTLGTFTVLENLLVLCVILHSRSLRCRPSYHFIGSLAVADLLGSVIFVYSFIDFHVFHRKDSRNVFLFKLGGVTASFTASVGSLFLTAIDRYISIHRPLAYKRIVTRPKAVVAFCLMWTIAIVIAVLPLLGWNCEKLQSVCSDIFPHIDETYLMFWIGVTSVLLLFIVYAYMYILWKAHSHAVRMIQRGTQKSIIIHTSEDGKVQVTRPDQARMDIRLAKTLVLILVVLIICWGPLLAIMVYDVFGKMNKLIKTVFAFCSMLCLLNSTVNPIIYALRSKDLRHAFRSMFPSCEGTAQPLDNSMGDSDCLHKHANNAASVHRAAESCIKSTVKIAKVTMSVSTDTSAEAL
Test: biochemical
Description: Displacement of [3H]CP-55940 from human recombinant CB1R expressed in HEK293 cells
pIC50: −log10 of the molar value.
readout_type: pIC50

CN1C(c2nn(-c3ccc(Cl)cc3Cl)c(-c3ccc(Cl)cc3)c2C2CC2)=NC(=O)C1(C)C = 7.36
Cc1c(C2=NC(=O)C(C)(C)N2C)nn(-c2ccc(Cl)cc2Cl)c1-c1ccc(Cl)cc1 = 7.26
CCc1c(C2=NC(=O)C(C)(C)N2C)nn(-c2ccc(Cl)cc2Cl)c1-c1ccc(Cl)cc1 = 7.89
Cc1c(C2=NC(=O)C(C)(C)N2C2CC2)nn(-c2ccc(Cl)cc2Cl)c1-c1ccc(Cl)cc1 = 7.02
CCc1c(C2=NC(=O)C(C)(C)N2C)nn(-c2ccc(Cl)cc2Cl)c1-c1ccc(Br)cc1 = 7.79
COc1ccc(-c2c(C)c(C3=NC(=O)C(C)(C)N3C)nn2-c2ccc(Cl)cc2Cl)cc1 = 6.67
CCCN1C(c2nn(-c3ccc(Cl)cc3Cl)c(-c3ccc(Cl)cc3)c2C)=NC(=O)C1(C)C = 6.07

---

Target: Cannabinoid receptor 1 (Homo sapiens)
Experiment: biochemical
readout_type: log10(IC50) (log10 of the value in nM)

CCc1c(C2=NC(C)(C)C(=O)N2)nn(-c2ccc(Cl)cc2Cl)c1-c1ccc(Cl)cc1 = 1.51
CN1C(c2cc(-c3ccc(Cl)cc3)n(-c3ccc(Cl)cc3Cl)n2)=NC(=O)C1(C)C = 2.51
CCc1c(C2=NC(C)(C)C(=O)N2C)nn(-c2ccc(Cl)cc2Cl)c1-c1ccc(Cl)cc1 = 1.53
Cc1c(C(=O)NC(=O)C(C)(C)N(C)C)nn(-c2ccc(Cl)cc2Cl)c1-c1ccc(Cl)cc1 = 1.92
CCc1c(C2=NC(=S)C(C)(C)N2C)nn(-c2ccc(Cl)cc2Cl)c1-c1ccc(Cl)cc1 = 1.08
